Would you mind telling me the reported melting point of each entry?

Worked set:
INSERT INTO results (smiles_record, measured) VALUES
  ('Cn1c(C(=O)N2CCN(C3CCOCC3)CC2)cc2cc(Oc3ccc(NS(=O)(=O)c4ccc(Cl)c(Cl)c4)cn3)ccc21', '208 to 210 °C'),
  ('CN(C(=O)c1ccc(C(F)(F)F)cc1)c1ccc(Oc2ccc3c(c2)cc(C(=O)N2CCN(Cc4ccc(OC(F)(F)C(F)F)cc4)CC2)n3C)nc1.O=C(O)/C=C\C(=O)O', '137 to 139 °C'),
  ('Cc1ccc(C(=O)N(C)c2ccc(Oc3ccc4cc(C(=O)N5CCN(Cc6ccc(OC(F)F)cc6)CC5)n(C)c4c3)nc2)cc1', '140.1 to 141.3 °C'),
  ('Br.Cc1ccc(C(=O)N(C)c2ccc(Oc3ccc4cc(C(=O)N5CCN(Cc6ccc(OCC(F)(F)F)cc6)CC5)n(C)c4c3)nc2)cc1', '226.1 to 227.3 °C'),
  ('CC(C)S(=O)(=O)N(C)c1ccc(Oc2ccc3cc(C(=O)N4CCN(Cc5ccc(OCC(F)(F)F)cc5)CC4)n(C)c3c2)nc1.Cl', '256.5 to 259.8 °C'),
  ('Br.CN(C(=O)c1ccc(C(F)(F)F)cc1)c1ccc(Oc2ccc3cc(C(=O)N4CCN(Cc5ccc(OC(CF)CF)cc5)CC4)n(C)c3c2)nc1', '230.8 to 231.4 °C');

Quick batch: melting point for everything below.
1. CCCCS(=O)(=O)N(C)c1ccc(Oc2ccc3cc(C(=O)N4CCN(Cc5ccc(OCC(F)(F)F)cc5)CC4)n(C)c3c2)nc1.Cl
2. Br.Cn1c(C(=O)N2CCN(Cc3ccc(OC(CF)CF)cc3)CC2)cc2ccc(Oc3ccc(NC(=O)c4ccc(C(F)(F)F)cc4Cl)cn3)cc21

Given back:
["253.6 to 254.4 °C", "239.8 to 240.8 °C"]

Give melting point for all molecules that follow.
1. Br.CN(C(=O)c1ccc(OC(F)(F)F)cc1)c1ccc(Oc2ccc3cc(C(=O)N4CCN(Cc5ccc(OCC(F)(F)F)cc5)CC4)n(C)c3c2)nc1
2. CN(C(=O)c1ccc(C(F)(F)F)cc1)c1ccc(Oc2ccc3c(c2)cc(C(=O)N2CCN(Cc4ccccn4)CC2)n3C)nc1.O=C(O)C(=O)O.O=C(O)C(=O)O
3. Cc1cc(C(F)(F)F)ccc1C(=O)Nc1ccc(Oc2ccc3cc(C(=O)N4CCN(Cc5ccc(OC(CF)CF)cc5)CC4)n(C)c3c2)nc1.Cl
4. Br.CN(C(=O)c1ccc(C(F)(F)F)cc1)c1ccc(Oc2ccc3cc(C(=O)N4CCN(Cc5ccc(OC(F)(F)F)cc5)CC4)n(C)c3c2)nc1

Given back:
1. 227.4 to 229.2 °C
2. 114 to 117 °C
3. 192.5 to 195.4 °C
4. 237 to 239 °C
